Where these numbers come from: PubChem BioAssay (NCI)

- System: TK-10 renal
- PROCEDURE SUMMARY: NCI-60 one-dose screen, 48 h (100 = growth as untreated, 0 = no growth, -100 = all killed)
- TEST PARAMETERS: 10 µM unless noted
The panel holds about 83,000 compounds, 20% with a hit somewhere; the sample as a whole holds those more often. Calls of active or inactive are those of the source. Rule for the calls: active = growth percent below 10; inactive = the rest.
OBSERVED PROPERTY: growth

COMPOUND	STUDY TARGET	MEASURED
COc1cc2nc(-c3ccc(C(F)(F)F)cc3)cc(OCCCN3CCCCC3)c2cc1OC	TK-10 renal	105% (inactive)
COc1ccc(C(=O)c2cc3c(N)c(C(=O)Nc4ccc(Cl)cc4)sc3nc2C)cc1	TK-10 renal	82% (inactive)
COc1ccc(C(O)c2cc3c(N)c(C(=O)Nc4ccccc4)sc3nc2C)cc1 (stereo not drawn)	TK-10 renal	44.2% (inactive)
COc1cc2nc(-c3ccc(C(F)(F)F)cc3)cc(OCCN3CCC(O)CC3)c2cc1OC	TK-10 renal	86.1% (inactive)
CC1=CC2(C)/C=C(C)/C=C\CC(O)/C=C3/C=CC(=C4C(=O)OC2(CC1C)C4=O)OC3 (stereo not drawn)	TK-10 renal	-86.8% (active)
C=C1C(=O)O[C@H]2[C@H]1CC/C(CNC(=O)/C=C/c1ccccc1F)=C\CC[C@@]1(C)O[C@@H]21	TK-10 renal	-29% (active)
C=C(C)[C@@H]1CC[C@]2(C(=O)NCC(=O)OC)CC[C@]3(C)[C@H](CC[C@@H]4[C@@]5(C)Cc6c([nH]c7ccccc67)C(C)(C)[C@@H]5CC[C@]43C)[C@@H]12	TK-10 renal	89.3% (inactive)
CN1CCN(Cc2ccc(NC(=O)c3cncc(C#Cc4cnccc4C(F)(F)F)c3)cc2C(F)(F)F)CC1	TK-10 renal	109% (inactive)
